test: Half life in Sprague-Dawley rat at 1 mg/kg; format: ADME, organism-based; parameters: dose 1 mg/kg; conditions: in vivo
Recorded Endpoint: half-life (h)

>  <Smiles String>
Nc1cc2c(ccc(=O)n2-c2c(F)cccc2F)c(-c2ccc(F)cc2F)n1

>  <Value Unit>
h

>  <Result>
6.5

$$$$

---

assay: Cmax in rat; assay type: ADME, organism-based; conditions: in vivo

>  <Smiles String>
O=c1ccc2c(-c3ccc(F)cc3F)nccc2n1-c1c(Cl)cccc1Cl

>  <Cmax, nM>
1000

$$$$

---

Entries and their measured IC50 follow.
system: THP-1; assay: Inhibition of TNFalpha release from LPS-stimulated human monocyte THP1 cells; assay type: functional, cell-based
Recorded Endpoint: IC50 (nM)

>  <Smiles String>
Nc1cc2c(ccc(=O)n2-c2c(F)cccc2F)c(-c2ccc(F)cc2F)n1

>  <Value Unit>
nM

>  <Result>
0.69

$$$$
>  <Smiles String>
O=c1ccc2c(-c3ccc(F)cc3F)nccc2n1-c1ccccc1Cl

>  <Value Unit>
nM

>  <Result>
40.5

$$$$
>  <Smiles String>
O=c1ccc2c(-c3ccc(F)cc3F)nccc2n1-c1c(F)cccc1F

>  <Value Unit>
nM

>  <Result>
7

$$$$
>  <Smiles String>
CNc1cc2c(ccc(=O)n2-c2c(F)cccc2F)c(-c2ccc(F)cc2F)n1

>  <Value Unit>
nM

>  <Result>
7.3

$$$$
>  <Smiles String>
O=c1ccc2c(-c3ccc(F)cc3F)nc(O)cc2n1-c1c(F)cccc1F

>  <Value Unit>
nM

>  <Result>
4.5

$$$$
>  <Smiles String>
O=c1ccc2c(-c3ccc(F)cc3F)[n+]([O-])ccc2n1-c1c(Cl)cccc1Cl

>  <Value Unit>
nM

>  <Result>
200

$$$$
>  <Smiles String>
O=c1ccc2c(-c3ccc(F)cc3F)nccc2n1-c1c(Cl)cccc1Cl

>  <Value Unit>
nM

>  <Result>
6.6

$$$$

---

experiment: Cmax in Sprague-Dawley rat at 1 mg/kg, po; assay type: ADME, organism-based; parameters: dose 1 mg/kg, route oral; conditions: in vivo

>  <Smiles String>
O=c1ccc2c(-c3ccc(F)cc3F)[n+]([O-])ccc2n1-c1c(Cl)cccc1Cl

>  <Cmax (µM)>
3.5

$$$$

---

assay: Volume of distribution in rhesus macaque; assay type: ADME, organism-based, Macaca mulatta; settings: rhesus monkey, in vivo; read-out: Vdss

>  <Smiles String>
Nc1cc2c(ccc(=O)n2-c2c(F)cccc2F)c(-c2ccc(F)cc2F)n1

>  <Vd, L/kg>
0.9

$$$$

---

experiment: Half life in rat; assay type: ADME, organism-based; conditions: in vivo

>  <Smiles String>
O=c1ccc2c(-c3ccc(F)cc3F)nccc2n1-c1c(Cl)cccc1Cl

>  <Value Unit>
h

>  <half-life>
2

$$$$

---

experiment: Cmax in Sprague-Dawley rat at 1 mg/kg; assay type: ADME, organism-based; set-up: dose 1 mg/kg; details: in vivo

>  <Smiles String>
Nc1cc2c(ccc(=O)n2-c2c(F)cccc2F)c(-c2ccc(F)cc2F)n1

>  <Cmax (µM)>
3.5

$$$$

---

assay: Volume of distribution in Sprague-Dawley rat at 1 mg/kg; assay type: ADME, organism-based; parameters: dose 1 mg/kg; conditions: in vivo, read-out: Vdss
Recorded Endpoint: Vd (L/kg)

>  <Smiles String>
Nc1cc2c(ccc(=O)n2-c2c(F)cccc2F)c(-c2ccc(F)cc2F)n1

>  <Result>
0.9

$$$$

---

assay: Oral bioavailability in rat; assay type: ADME, organism-based; conditions: in vivo
Recorded Endpoint: bioavailability (%)

>  <Smiles String>
O=c1ccc2c(-c3ccc(F)cc3F)nccc2n1-c1c(Cl)cccc1Cl

>  <Recorded Endpoint>
bioavailability

>  <Result>
57

$$$$

---

experiment: Bioavailability in Sprague-Dawley rat at 1 mg/kg, po; assay type: ADME, organism-based; conditions: in vivo

>  <Smiles String>
O=c1ccc2c(-c3ccc(F)cc3F)[n+]([O-])ccc2n1-c1c(Cl)cccc1Cl

>  <bioavailability, %>
98

$$$$

---

experiment: Oral bioavailability in rhesus macaque; assay type: ADME, organism-based, Macaca mulatta; settings: rhesus monkey, in vivo
Recorded Endpoint: bioavailability (%)

>  <Smiles String>
Nc1cc2c(ccc(=O)n2-c2c(F)cccc2F)c(-c2ccc(F)cc2F)n1

>  <Value Unit>
%

>  <Result>
22

$$$$

---

assay: Clearance in Sprague-Dawley rat at 1 mg/kg; format: ADME, organism-based; design: dose 1 mg/kg; settings: in vivo

>  <Smiles String>
Nc1cc2c(ccc(=O)n2-c2c(F)cccc2F)c(-c2ccc(F)cc2F)n1

>  <clearance>
1.6 mL/min/kg

$$$$

Data origin: ChEMBL document CHEMBL1137291
